GI50 values for the compounds below.
- Test system: UACC-257
- experimental_protocol: NCI tumour cell line growth inhibition, 48 h
The source made the active and inactive calls. Cut-off read from the data, not from the text of the source: active = GI50 up to about 1.1 µM and inactive = higher. Where a SMILES comes first, the peptide text is derived from it. The star is where a group is joined. Boc = CC(C)(C)OC(=O)*

Assign GI50 to the following record: O=C1c2ccccc2C(=O)c2c(NCC3CO3)ccc(NCC3CO3)c21 (centres undefined)
7.08 µM (inactive)

Give the reported value of GI50 for this record: CCCCCc1cc2c(cc1O)CC[C@@H]1[C@@H]2CC[C@]2(C)[C@@H](O)CC[C@@H]12
21 µM (inactive)

Tell me measured GI50 for COC(=O)CCCc1ccc2c(c1)CCC2 please.
> 100 µM (inactive)

Give GI50 for the following compound: Cn1cc2ccccc2c1-c1nc(F)nc(OCC(=O)[C@H]2CCC3[C@@H]4CCC5=CC(=O)CC[C@]5(C)C4[C@@H](O)C[C@@]32C)n1 (some centres undefined)
18.8 µM (inactive)

Identify GI50 associated with the compound NCCCN1CCN(c2ccccc2)CC1
> 100 µM (inactive)

Answer with the recorded GI50 for the compound listed here: O=C1CC[C@@H](S(=O)(=O)c2ccccc2)[C@H](/C=C/c2ccccc2)O1
> 100 µM (inactive)

For the compound Nc1ncnc2c1ncn2C1OC(CO)C(O)C1NS(=O)(=O)c1ccccc1 (centres undefined) , give its measured GI50 value.
> 100 µM (inactive)

Assign GI50 to the following record: COC(=O)c1c2cccccc-2c(Cc2c3cccccc-3c(C(=O)OC)c2O)c1O
> 100 µM (inactive)

Consider the compound COC(=O)C(C)NC(=O)C(CCSC)NC(=O)C(Cc1ccccc1)NC(=O)OC(C)(C)C (stereo not drawn) (Boc-Phe-Met-Ala-OMe; configuration not given here) and give its recorded GI50.
> 100 µM (inactive)

* * *

- Test system: TK-10
- experimental_protocol: NCI tumour cell line growth inhibition, 48 h
Active and inactive are the calls of the source. Cut-off read from the data, not from the text of the source: active = GI50 up to about 1.1 µM and inactive = higher.
Please state which outcome applies, choosing from Yes = active, No = inactive

Example entries begin here.
>  <molecule>
COc1ccc(C2SCC(=O)N2NC2=NC(=O)CC(=O)N2)cc1 (stereo not drawn)

>  <class_name>
No

$$$$
>  <molecule>
COc1ccc(C(=O)O)c(Cc2ccc3ccccc3c2)c1

>  <class_name>
No

$$$$
>  <molecule>
O=c1cc(O)c2c(O)cc(O)cc2o1

>  <class_name>
No

$$$$
>  <molecule>
COC(=O)c1c2cccccc-2c(Cc2c3cccccc-3c(C(=O)OC)c2O)c1O

>  <class_name>
No

$$$$

Would you kindly look at the next entry?
Could you please tell me the result logged for CN(C)c1ccc(/C=c2\sc3nnc(Cc4ccccc4)n3c2=O)cc1 in this assay?
No

* * *

- Tested on: NCI-H226
- experimental_protocol: NCI tumour cell line growth inhibition, 48 h
Activity calls are given as the source filed them. Rule as the data show it: active = GI50 up to about 1.1 µM and inactive = higher.
Outcomes you can answer with include only these: class 1 for active, class 0 for inactive

Could you kindly confirm the outcome this assay logged for CCN(CC)CCN(C)CC(C)(C)C(=O)/C=C/c1ccccc1 ?
class 0

Entry COc1ccc(-c2cc(-c3ccccc3)nc(N)c2-c2ccc3ccccc3c2)cc1 : call = ?
class 0

Called result for Nn1c(S)nnc1CCCCCCCCc1nnc(S)n1N
class 0

Short answer needed: outcome of this test for COc1ccc(C(C)Nc2cc(OC)c(OC)c(OC)c2)cc1 (configuration not stated) ?
class 0

Just curious, what result did CC1=C(CO)C(=O)OC(C(C)C2CCC3C4CC5OC56C(O)C(N5CC5)=CC(=O)C6(C)C4CCC23C)C1 (configuration not stated) get here?
class 0

What did this assay record as the result for Nc1ccc(-c2nc3cc(F)ccc3s2)cc1I ?
class 1

Recorded call for COc1ccc2c(c1)CC1c3c(ccc(OC)c3O)CC2N1C (configuration not stated) ?
class 0

Please let me know the test result on file for O=C1OCC2C1C1c3ccccc3C(O)c3ccccc3C21 (configuration not stated) .
class 0

Look up the recorded call for CC1(c2cccc3c2C2(O)C=CC4(CCC32)OCCO4)OCCO1 (configuration not stated) in this test.
class 0

Please share the test call associated with Cc1cc(C)c2c(O)cc(-c3cccc(F)c3)nc2n1 .
class 1

Please indicate how the test categorized S=c1[nH]c2ccc(Br)cc2c(=S)s1 .
class 0

Status in this test for CC(C)(C)OC(=O)NC(Cc1ccc(O)cn1)C(=O)O (configuration not stated) ?
class 0

* * *

Let's look at some compounds and their measured GI50.
- Test system: LOX IMVI
- experimental_protocol: NCI tumour cell line growth inhibition, 48 h
The source made the active and inactive calls. Rule as the data show it: active = GI50 up to about 1.1 µM and inactive = higher.

>  <compound>
Cc1cc2nc(O)c(C(C)C(=O)c3ccc(Cl)cc3)nc2cc1C (stereo not drawn)

>  <test_target>
LOX IMVI

>  <GI50>
35.6 µM (inactive)

$$$$

Indicate its recorded GI50; the compound in question is CCC(/C(=N\Nc1c(Cl)cc(Cl)cc1Cl)c1ccccc1)n1ccnc1C (stereo not drawn)
12.2 µM (inactive)

Identify the reported GI50 for the following entry. COC(=O)c1ccccc1CC1Cc2ccc3c(c2C1=O)CCCC3 (stereo not drawn)
28.8 µM (inactive)

* * *

The entries below come with measured GI50 values attached.
- Tested on: MCF7
- experimental_protocol: NCI tumour cell line growth inhibition, 48 h
Calls of active or inactive are those of the source. Rule as the data show it: active = GI50 up to about 1.1 µM and inactive = higher.

Reference set, count: 4
>  <structure_smiles_string>
O=C(O)Cc1cccc2c(=O)c3ccccc3oc12

>  <test_target>
MCF7

>  <readout_value>
> 100 µM (inactive)

$$$$
>  <structure_smiles_string>
Cn1cc(NC(=O)Nc2cc(C(=O)Nc3cc(C(=O)Nc4cc(S(=O)(=O)O)c5cc(S(=O)(=O)O)cc(S(=O)(=O)O)c5c4)n(C)c3)n(C)c2)cc1C(=O)Nc1cc(C(=O)Nc2cc(S(=O)(=O)O)c3cc(S(=O)(=O)O)cc(S(=O)(=O)O)c3c2)n(C)c1

>  <test_target>
MCF7

>  <readout_value>
> 100 µM (inactive)

$$$$
>  <structure_smiles_string>
Nc1ncc(Cc2nn3c(COc4ccc(Cl)cc4)nnc3s2)s1

>  <test_target>
MCF7

>  <readout_value>
> 100 µM (inactive)

$$$$
>  <structure_smiles_string>
CCN1C(=O)/C(=C/Nc2ccccc2)S/C1=N/Nc1nc(-c2ccc(O)c(O)c2)cs1

>  <test_target>
MCF7

>  <readout_value>
4 µM (inactive)

$$$$

Kindly consider the entry below.
Hello, please tell me recorded GI50 for this one: COC(=O)C1(C(=O)OC)CC2=C(S(=O)(=O)c3ccccc3)C[C@@H](C#N)[C@H]2C1
47.5 µM (inactive)

* * *

Entries annotated with measured GI50
- System: RPMI-8226
- experimental_protocol: NCI tumour cell line growth inhibition, 48 h
The source made the active and inactive calls. No stated cut-off is given here; in the data, active = GI50 up to about 1.1 µM and inactive = higher.

Example entries and their recorded answers appear below.
>  <compound>
COC(=O)[C@]1(C)CCC[C@]2(C)C3CC4OOC3(C=C4C(C)(C)O)CCC21 (stereo not given in full)

>  <GI50>
16.7 µM (inactive)

$$$$
>  <compound>
CC1=C(CO)C(=O)OC(C(C)C2CCC3C4CC5OC56C(O)C(N5CC5)=CC(=O)C6(C)C4CCC23C)C1 (stereo not given)

>  <GI50>
3.35 µM (inactive)

$$$$
>  <compound>
CC(C)NC(=O)OCc1c(COC(=O)NC(C)C)n(C)c2c1ccc1ccsc12

>  <GI50>
2.94 µM (inactive)

$$$$
>  <compound>
O=C(Cn1ccnc1[N+](=O)[O-])c1ccccc1

>  <GI50>
> 100 µM (inactive)

$$$$

Query compound follows.
Answer with the recorded GI50 of Nn1c(S)nnc1CCCCCCCCc1nnc(S)n1N only.
> 100 µM (inactive)

* * *

- Tested on: HL-60
- experimental_protocol: NCI tumour cell line growth inhibition, 48 h
Active and inactive are the calls of the source. Cut-off read from the data, not from the text of the source: active = GI50 up to about 1.1 µM and inactive = higher.
Please state which outcome applies, choosing from True for active, False for inactive

Fill in: this test's call for Clc1ncnc2c1nc(C#Cc1ccccc1)n2Cc1ccccc1 is ___
False

What was the test verdict on Cc1cn(C2CC(OP(=O)(O)OCC3OC(n4c[n+]([BH2-]C#N)c5c(=O)[nH]c(N)nc54)CC3O)C(CO)O2)c(=O)[nH]c1=O (centres undefined) ?
False

State the result this test recorded for Cc1cn(Cc2ccccc2CCl)c(=O)[nH]c1=O .
False

* * *

- Test system: K562
- experimental_protocol: NCI tumour cell line growth inhibition, 48 h
The source made the active and inactive calls. Cut-off read from the data, not from the text of the source: active = GI50 up to about 1.1 µM and inactive = higher.
The following compounds are shown together with reported GI50 values.

>  <compound>
COc1ccc2c(c1)CC[C@@H]1[C@@H]2CC[C@]2(C)C(=O)/C(=C/c3ccc(C#N)cc3)C[C@@H]12

>  <GI50>
> 100 µM (inactive)

$$$$
>  <compound>
CCOC(=O)C1=C(C)C2C3C(=O)NC(=O)C3C1(C)C1C(=O)NC(=O)C21 (stereo unspecified)

>  <GI50>
> 100 µM (inactive)

$$$$
>  <compound>
C=CCC(CCC(C)=O)(C(=O)OCC)C(=O)OCC

>  <GI50>
> 100 µM (inactive)

$$$$
>  <compound>
CN(C)CCS/C(=N\c1ccccc1)N1C=COC=C1

>  <GI50>
> 67.8 µM (inactive)

$$$$
>  <compound>
COC(=O)C(Cc1c(C2Nc3ccccc3C2CC(NC(C)=O)C(=O)OC)[nH]c2ccccc12)NC(C)=O (stereo unspecified)

>  <GI50>
> 100 µM (inactive)

$$$$

Look up and report GI50, with K562 as system, for c1ccc2sc(SCN(C3CCCCC3)C3CCCCC3)nc2c1
> 100 µM (inactive)

Provide K562 GI50 reading for CC(C)Cc1ccc(C(C)/C=C2\CCC(CN3CCCC3)C2=O)cc1 (stereo unspecified) .
3.91 µM (inactive)

# return GI50 of COc1ccc(C(C)Nc2cc(OC)c(OC)c(OC)c2)cc1 (stereo unspecified) (system: K562)
2.19 µM (inactive)

Supply GI50 measured with K562 for C[C@@]12C=CC3C/C(=N\C(N)=S)C=C(CCCC4OCCO4)[C@]3(CC1)C2 (stereo partly specified) .
17.9 µM (inactive)

Give reported GI50 for O=[N+]([O-])c1ccc(/C=N/n2c(CO)nc3ccccc32)o1 (K562)
4.67 µM (inactive)

State the measured GI50 (K562) of O=[N+]([O-])/C(C(Cl)=C(Cl)Cl)=C1/OCCS1
30 µM (inactive)
